For each of the sequences below, state its PBM binding z-score.
Test system: PPARg:RXRa 90nM:30nM, anti-RXR (NR concentration 90 nM, RXRa partner concentration 30 nM)
Assay explanation: PBM binding z-score (relative to random genomic background probes); higher = stronger binding; sequences stand for … in GC…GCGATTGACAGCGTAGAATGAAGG
Give bare numbers.

Previously resolved entries follow.
• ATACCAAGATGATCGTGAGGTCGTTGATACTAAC = -0.00184
• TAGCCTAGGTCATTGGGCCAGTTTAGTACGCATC = 2.06
• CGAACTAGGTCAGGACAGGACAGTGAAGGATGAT = 4.11
• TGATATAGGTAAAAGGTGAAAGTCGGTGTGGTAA = 9.7
• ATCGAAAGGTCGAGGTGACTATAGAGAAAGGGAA = 3.09

List PBM binding z-score for every entry below, keeping the order given.
1. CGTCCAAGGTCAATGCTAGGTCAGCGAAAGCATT
2. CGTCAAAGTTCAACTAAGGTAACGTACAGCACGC
3. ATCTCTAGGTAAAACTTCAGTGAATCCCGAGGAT
4. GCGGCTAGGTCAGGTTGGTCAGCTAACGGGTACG
5. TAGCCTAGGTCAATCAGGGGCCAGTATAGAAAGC
6. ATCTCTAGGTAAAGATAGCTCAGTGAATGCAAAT
7. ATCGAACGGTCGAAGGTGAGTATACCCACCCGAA

## Result
1. 3.25
2. 4.59
3. 0.539
4. 0.275
5. 1.76
6. 0.317
7. 0.698

List PBM binding z-score for every entry below, keeping the order given.
1. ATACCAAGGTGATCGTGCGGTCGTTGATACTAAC
2. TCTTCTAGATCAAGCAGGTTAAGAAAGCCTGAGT
3. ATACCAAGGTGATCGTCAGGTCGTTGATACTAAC
4. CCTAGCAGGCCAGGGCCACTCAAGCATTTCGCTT
5. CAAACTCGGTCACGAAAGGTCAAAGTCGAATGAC
6. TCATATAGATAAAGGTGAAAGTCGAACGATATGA
7. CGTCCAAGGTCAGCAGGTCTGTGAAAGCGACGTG
8. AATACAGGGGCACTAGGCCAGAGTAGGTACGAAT

## Result
-0.232
2.53
0.227
-1.48
5.51
4.09
1.57
1.26

List PBM binding z-score for every entry below, keeping the order given.
1. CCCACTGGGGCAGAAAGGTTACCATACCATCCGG
2. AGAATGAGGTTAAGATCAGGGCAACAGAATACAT
3. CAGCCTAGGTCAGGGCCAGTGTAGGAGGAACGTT
4. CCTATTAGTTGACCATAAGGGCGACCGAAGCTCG
5. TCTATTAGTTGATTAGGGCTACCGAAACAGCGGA
6. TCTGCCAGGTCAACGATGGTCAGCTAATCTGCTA

## Result
1: 2.22; 2: 2.24; 3: -0.0334; 4: 0.134; 5: 2.98; 6: 2.04
